system: NCI-H2030; experiment: Cell Viability Assay (CellTiter-Glo); assay type: cell-based; details: 10 μM, 5 days
QUANTITY: Normalized viability % DMSO (% DMSO)
Numbers only, in % DMSO.

Use these answered entries as a reference point.
Cc1ncsc1-c1ccc(CNC(=O)[C@@H]2C[C@@H](O)CN2C(=O)[C@@H](n2cc(C3CC3)nn2)C(C)(C)C)cc1    16.5
CNC(=O)[C@@H]1C[C@@H](O)CN1C(=O)[C@@H](n1cc(CN2CCC(C(=O)OC)CC2)nn1)C(C)(C)C    12.7
CC(C)(NC(=O)[C@@H]1C[C@@H](O)CN1C(=O)[C@@H](n1cc(C2CC2)nn1)C(C)(C)C)C(=O)Nc1ccccc1    5.6

# map each compound to its Normalized viability % DMSO
1. CC(C)(C)[C@@H](C(=O)N1C[C@H](O)C[C@H]1C(=O)NC1CC12CCc1cc(Br)ccc12)n1cc(C2CC2)nn1 (some centres unmarked)
2. CC(Cc1ccc(Br)cc1F)NC(=O)[C@@H]1C[C@@H](O)CN1C(=O)[C@@H](n1cc(C2CC2)nn1)C(C)(C)C (some centres unmarked)

Response:
31.8
50.4

====

test system: NCI-H23; experiment: Cell Viability Assay (CellTiter-Glo); format: cell-based; details: 1 μM, 5 days
For each entry below, report its Normalized viability % DMSO value.
Dear colleague, please send the value followed by its unit.

Cc1ncsc1-c1ccc(CNC(=O)[C@@H]2C[C@@H](O)CN2C(=O)[C@@H](n2cc(C3CC3)nn2)C(C)(C)C)cc1    8.6 % DMSO
CNC(=O)[C@@H]1C[C@@H](O)CN1C(=O)[C@@H](n1cc(COc2ccccc2F)nn1)C(C)(C)C    7.4 % DMSO
Cn1c(CCNC(=O)[C@@H]2C[C@@H](O)CN2C(=O)[C@@H](n2cc(C3CC3)nn2)C(C)(C)C)nc2c(F)cccc21    21.7 % DMSO

Query: Entry `CC(C)(NC(=O)[C@@H]1C[C@@H](O)CN1C(=O)[C@@H](n1cc(C2CC2)nn1)C(C)(C)C)C(=O)Nc1ccccc1` has what Normalized viability % DMSO?
Response: 37.0 % DMSO

====

For each entry below, report its Normalized viability % DMSO value.
test system: HCC366; experiment: Cell Viability Assay (CellTiter-Glo); assay type: cell-based; details: 10 μM, 5 days
Dear colleague, please send the value followed by its unit.

Cc1ncsc1-c1ccc(CNC(=O)[C@@H]2C[C@@H](O)CN2C(=O)[C@@H](n2cc(C3CC3)nn2)C(C)(C)C)cc1    22.5 % DMSO
CC(C)(C)[C@@H](C(=O)N1C[C@H](O)C[C@H]1C(=O)N[C@H]1CC[C@H](c2nc3ccccc3o2)CC1)n1cc(C2CC2)nn1    6.0 % DMSO
CC(C)(NC(=O)[C@@H]1C[C@@H](O)CN1C(=O)[C@@H](n1cc(C2CC2)nn1)C(C)(C)C)c1cccc(C#N)c1    12.5 % DMSO
CC(C)(C)[C@@H](C(=O)N1C[C@H](O)C[C@H]1C(=O)NC1CN(c2ccncc2)C1)n1cc(C2CC2)nn1    5.2 % DMSO

Query: Entry `Cc1ccc(N2CCC[C@H]2CNC(=O)[C@@H]2C[C@@H](O)CN2C(=O)[C@@H](n2cc(C3CC3)nn2)C(C)(C)C)cc1` has what Normalized viability % DMSO?
Response: 11.3 % DMSO
